- method.description: Pharmacokinetics in Sprague-Dawley rats (HPLC-MS/MS of plasma)
- Assay type: in vivo
- setup.conditions: Sprague-Dawley, plasma; PO, single dose 5.00 mg/kg, rat
readout: Tmax (min)

• O=C(Nc1cn2c(-c3ccc(CN4CCS(=O)(=O)CC4)cc3F)cccc2n1)C1CC1 [Compound 14] = 37.8

* * *

- target.or.test.system: human Janus kinase 1 (JAK1), recombinant catalytic domain (Homo sapiens (Human), UniProt P23458)
- Sequence (P23458 866-1154): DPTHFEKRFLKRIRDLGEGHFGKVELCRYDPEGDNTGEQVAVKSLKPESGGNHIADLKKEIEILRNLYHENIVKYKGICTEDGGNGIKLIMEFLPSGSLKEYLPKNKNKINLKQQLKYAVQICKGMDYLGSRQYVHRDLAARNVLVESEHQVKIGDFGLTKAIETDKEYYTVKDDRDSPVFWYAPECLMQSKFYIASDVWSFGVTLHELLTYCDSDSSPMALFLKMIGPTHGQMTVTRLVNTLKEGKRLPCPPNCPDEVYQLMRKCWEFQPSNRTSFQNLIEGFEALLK
- method.description: LanthaScreen TR-FRET enzymatic assay, JAK1
- setup.conditions: 1 mM ATP, GFP-STAT1 substrate, read-out: Inhibitory Activity IC50 JAK1
Readings of IC50 for the listed compounds
readout: IC50

* CC1(C)CN(C(=O)c2ccc(-c3cccc4nc(NC(=O)C5CC5)cn34)cc2)C1 | ≤ 0.5 µM
* N#CCc1ccc(-c2cccc3nc(NC(=O)C4CC4)cn23)cc1F | ≤ 0.5 µM
* O=C(Nc1cn2c(-c3ccc(CN4CC[C@@H](O)C4)cc3)cccc2n1)C1CC1 | 1 to 5 µM
* CC1(C)CN(Cc2ccc(-c3cccc4nc(NC(=O)C5CC5)cn34)cc2)C1 | > 5 µM
* Cc1ccc(-c2ccc(CN3CCS(=O)(=O)CC3)cc2)n2cc(NC(=O)C3CC3)nc12 | > 5 µM
* O=C(Nc1cn2c(-c3ccc(CN4CCS(=O)(=O)CC4)cc3)cccc2n1)C1CC1 | ≤ 0.5 µM
* O=C(Nc1cn2c(-c3ccc(CN4CCS(=O)(=O)CC4)cc3)cccc2n1)C1CCC1 | 1 to 5 µM
* N#CCc1ccccc1NCc1ccc(-c2cccc3nc(NC(=O)C4CC4)cn23)cc1 | ≤ 0.5 µM
* N#CC1CCN(Cc2ccc(-c3cccc4nc(NC(=O)C5CC5)cn34)cc2)CC1 | 0.5 to 1 µM
* N#CCc1ccc(-c2cccc3nc(N)cn23)c(F)c1 | > 5 µM
* O=C(Nc1cn2c(-c3ccc(CN4CCS(=O)(=O)CC4)cc3F)cccc2n1)C1CC1 | ≤ 0.5 µM
* O=C(Nc1cn2c(-c3ccc(CN4CC[C@H](O)C4)cc3)cccc2n1)C1CC1 | 0.5 to 1 µM
* CC1(C)CN(C(=O)c2ccc(-c3cccc4nc(NC(=O)C5CC5)cn34)c(F)c2)C1 | 0.5 to 1 µM
* O=C(Nc1cn2c(-c3ccc(NS(=O)(=O)C4CC4)cc3)cccc2n1)C1CC1 | ≤ 0.5 µM
* O=C(Nc1cn2c(-c3cccc(CN4CCS(=O)(=O)CC4)c3)cccc2n1)C1CC1 | > 5 µM
* O=C(Nc1cn2c(-c3ccc(CN4CCS(=O)(=O)CC4)c(F)c3)cccc2n1)C1CC1 | ≤ 0.5 µM
* CN1CCN(Cc2ccc(-c3cccc4nc(NC(=O)C5CC5)cn34)cc2)CC1 | > 5 µM
